system: HEK reporter cell line; experiment: cell-viability assay using alamar blue reagent; format: cell-based, human; settings: 1 μM inhibitor, 72 hours
For each of the compounds below, state its % survival.
Answers are plain numbers, in %.

Reference set, count: 6
In [3]: df
Out[3]:
                            molecule_smiles  result_unit   value
0  CCS(=O)(=O)c1cccc(-c2cc(C(=O)NC3CCN(C)CC3)c(C)c3[nH]c4ncc(C)cc4c23)c1            %   36.24
1  O=C([C@H](Cc1cccc(C(F)(F)F)c1)NS(=O)(=O)c1cc(F)c2c(c1)CCNC2)N1CCCC1            %  115.11
2  Cc1cc(CN2CCN(c3c(Br)cnc4nc(-c5ccc(N6CCN(C)CC6)cc5)[nH]c34)CC2)no1            %   63.37
3          O=c1cc(N2CCOCC2)oc2c1ccc1ccccc12            %  100.14
4  O=C(Nc1c[nH]nc1-c1nc2cc(CN3CCOCC3)ccc2[nH]1)NC1CC1            %   69.69
5  O=c1cc(N2CCOCC2)oc2c(-c3cccc4c3sc3ccccc34)cccc12            %   88.88

Look up % survival for this compound: O=C1NC(=O)/C(=C/c2cccc(C(F)(F)F)c2)S1
103.18

----------
test system: HEK reporter cell line; experiment: cell-viability assay using alamar blue reagent; assay type: cell-based, human; details: 0.1 μM inhibitor, 72 hours
Property: % survival (%)
Give bare numbers, in %.

In [3]: df
Out[3]:
                            molecule_smiles           target_system    property   value
0  O=C([C@H](Cc1cccc(C(F)(F)F)c1)NS(=O)(=O)c1cc(F)c2c(c1)CCNC2)N1CCCC1  HEK reporter cell line  % survival   99.98
1  O=c1cc(N2CCOCC2)oc2c(-c3cccc4c3sc3ccccc34)cccc12  HEK reporter cell line  % survival  103.58
2     O=C1NC(=O)/C(=C/c2cccc(C(F)(F)F)c2)S1  HEK reporter cell line  % survival   105.2

Let's switch to this molecule now.
Look up % survival for this molecule: CCS(=O)(=O)c1cccc(-c2cc(C(=O)NC3CCN(C)CC3)c(C)c3[nH]c4ncc(C)cc4c23)c1
88.9

----------
For each of the molecules below, state its % survival.
system: HEK reporter cell line; assay: cell-viability assay using alamar blue reagent; format: cell-based, human; conditions: 10 μM inhibitor, 72 hours
Give bare numbers, in %.

Reference set, count: 3
>>> print(df.to_string())
                            molecule_smiles           target_system  result_unit  value
0  O=C(Nc1c[nH]nc1-c1nc2cc(CN3CCOCC3)ccc2[nH]1)NC1CC1  HEK reporter cell line            %    7.1
1  O=c1cc(N2CCOCC2)oc2c(-c3cccc4c3sc3ccccc34)cccc12  HEK reporter cell line            %  22.95
2          O=c1cc(N2CCOCC2)oc2c1ccc1ccccc12  HEK reporter cell line            %  83.17

Value sought for every listed molecule: % survival.
1. O=C([C@H](Cc1cccc(C(F)(F)F)c1)NS(=O)(=O)c1cc(F)c2c(c1)CCNC2)N1CCCC1
2. CCS(=O)(=O)c1cccc(-c2cc(C(=O)NC3CCN(C)CC3)c(C)c3[nH]c4ncc(C)cc4c23)c1
3. Cc1cc(CN2CCN(c3c(Br)cnc4nc(-c5ccc(N6CCN(C)CC6)cc5)[nH]c34)CC2)no1

1: 94.25; 2: 5.65; 3: −0.08

Look up % survival for this molecule: O=C1NC(=O)/C(=C/c2cccc(C(F)(F)F)c2)S1
99.85

----------
tested on: HEK reporter cell line; experiment: cell-viability assay using alamar blue reagent; format: cell-based, human; conditions: 0.1 μM inhibitor, 72 hours
Property: % survival (%)
Answers are plain numbers, in %.

>>> print(df.to_string())
                            molecule_smiles  value
0  O=C(Nc1c[nH]nc1-c1nc2cc(CN3CCOCC3)ccc2[nH]1)NC1CC1  81.49

Value sought for every listed compound: % survival.
1. O=c1cc(N2CCOCC2)oc2c1ccc1ccccc12
2. Cc1cc(CN2CCN(c3c(Br)cnc4nc(-c5ccc(N6CCN(C)CC6)cc5)[nH]c34)CC2)no1

1: 100.08; 2: 105.48

----------
system: HEK293 reporter cell line; test: CRISPR/Cas9-based HDR assay (wtCas9 RNP, ssOligo donor, EGFP positive cells by FACS); assay type: cell-based, human; settings: from the HDR dose dependency experiment, wtCas9
For each of the compounds below, state its optimal concentration selected for further experiments.
Answers are plain numbers, in µM.

In [3]: df
Out[3]:
                            molecule_smiles  result_unit  value
0  O=C(Nc1c[nH]nc1-c1nc2cc(CN3CCOCC3)ccc2[nH]1)NC1CC1           µM   0.05
1  O=C([C@H](Cc1cccc(C(F)(F)F)c1)NS(=O)(=O)c1cc(F)c2c(c1)CCNC2)N1CCCC1           µM     20
2  O=c1cc(N2CCOCC2)oc2c(-c3cccc4c3sc3ccccc34)cccc12           µM      1

Let's switch to this compound now.
Look up optimal concentration selected for further experiments for this compound: O=C1NC(=O)/C(=C/c2cccc(C(F)(F)F)c2)S1
20
